system: HDQ-P1; test: normalised response (% of control), CellTiter-Glo; higher = more viable cells (100 = DMSO, 0 = benzethonium chloride kill control); conditions: incubation time: 72 h
Entries and their normalised response
Entry rule: numbers only, all in %.

INSERT INTO assay_data (molecule, endpointname, resultvalue) VALUES
  ('Nc1nc(F)nc2c1ncn2[C@@H]1O[C@H](CO)[C@@H](O)[C@@H]1O [Fludarabine] (10 nM)', 'normalised response', 97),
  ('Oc1ncc(N(CCCl)CCCl)c(O)n1 [Uracil mustard] (1000 nM)', 'normalised response', 105),
  ('COc1cc2c(NC3CCN(C(C)C)CC3)nc(C3CCCCC3)nc2cc1OCCCN1CCCC1 [UNC0638] (10 nM)', 'normalised response', 95.6),
  ('O=C(O)CCCCC(CCSCc1ccccc1)SCc1ccccc1 (centres undefined) [CPI-613] (1000 nM)', 'normalised response', 102),
  ('Cc1ccc(-c2cc(C(F)(F)F)nn2-c2ccc(S(N)(=O)=O)cc2)cc1 [Celecoxib] (1 nM)', 'normalised response', 97.4),
  ('O=C(/C=C/c1cccnc1)NCCCCC1CCN(C(=O)c2ccccc2)CC1 [Daporinad] (100 nM)', 'normalised response', 19.1),
  ('Oc1ncc(N(CCCl)CCCl)c(O)n1 [Uracil mustard] (10 nM)', 'normalised response', 95.1),
  ('CCc1cncnc1N1CCN(Cc2nc3ccc(C(F)(F)F)cc3[nH]2)CC1 (1 nM)', 'normalised response', 105);

Sure, the documented normalised response for CCN(CC)CCCC(C)Nc1c2ccc(Cl)cc2nc2ccc(OC)cc12 (centres undefined) [Mepacrine] (5000 nM) is 112

* * *

Measured normalised viability, listed per entry for reference.
tested on: Hs578T; assay: normalised viability (% of control), CellTiter-Blue; higher = more viable cells (about 100 = DMSO control); settings: 100 nM; incubation time: 72 h
The answer consists of two parts: a number and, after it, its unit.

INSERT INTO assay_data (structure, endpointname, resultvalue) VALUES
  ('CCCS(=O)(=O)Nc1ccc(F)c(C(=O)c2c[nH]c3ncc(-c4ccc(Cl)cc4)cc23)c1F', 'normalised viability', '110%'),
  ('Nc1nc2[nH]cc(CCc3ccc(C(=O)N[C@@H](CCC(=O)O)C(=O)O)cc3)c2c(=O)[nH]1', 'normalised viability', '102%'),
  ('NCCCNCCSP(=O)(O)O', 'normalised viability', '79.1%'),
  ('N#Cc1ccc(C(c2ccc(C#N)cc2)n2cncn2)cc1', 'normalised viability', '88.1%'),
  ('CC1=C(/C=C/C(C)=C/C=C/C(C)=C/C(=O)O)C(C)(C)CCC1', 'normalised viability', '91.5%');

Pending compound:
What the record says about Oc1ncc(N(CCCl)CCCl)c(O)n1 : normalised viability is 116%

* * *

system: CAL-148; assay: normalised viability (% of control), CellTiter-Blue; higher = more viable cells (about 100 = DMSO control); conditions: 10000 nM; incubation time: 72 h
normalised viability values by entry
// note: answer is a bare numeric in %

For orientation, consider the following solved cases.
INSERT INTO assay_data (structure, resultvalue) VALUES
  ('NCCCNCCSP(=O)(O)O', 95.2),
  ('CC[C@H](Nc1ncnc2[nH]cnc12)c1nc2cccc(F)c2c(=O)n1-c1ccccc1', 88.1),
  ('CCc1cncnc1N1CCN(Cc2nc3ccc(C(F)(F)F)cc3[nH]2)CC1', 108);

We next turn to a different molecule, shown below.
Measured normalised viability, Nc1ccccc1NC(=O)c1ccc(CNC(=O)OCc2cccnc2)cc1 : 9.38

* * *

system: CAL-120; assay: drug sensitivity score (DSS), CellTiter-Blue viability (DSS (AUC-based score)); higher = stronger viability inhibition; extreme values may be limits of the assay; settings: incubation time: 72 h
Recorded measurements of drug sensitivity score, one per entry
Answer with a bare number; do not write a unit.

INSERT INTO assay_data (compound, systemundertest, endpointname, resultvalue) VALUES
  ('C=CC(=O)N1CCC[C@@H](n2nc(-c3ccc(Oc4ccccc4)cc3)c3c(N)ncnc32)C1', 'CAL-120', 'drug sensitivity score', 0),
  ('COc1cc([C@@H]2c3cc4c(cc3[C@@H](O[C@@H]3O[C@@H]5CO[C@@H](c6cccs6)O[C@H]5[C@H](O)[C@H]3O)[C@H]3COC(=O)[C@H]23)OCO4)cc(OC)c1O [Teniposide]', 'CAL-120', 'drug sensitivity score', 11.2),
  ('COc1cc2nccc(Oc3ccc(NC(=O)Nc4cc(C)on4)c(Cl)c3)c2cc1OC', 'CAL-120', 'drug sensitivity score', 2.1),
  ('Cc1cnc(NC(=O)Nc2cc(Br)c(C)cc2OC[C@@H]2CNCCO2)cn1', 'CAL-120', 'drug sensitivity score', 0),
  ('NCCCNCCSP(=O)(O)O', 'CAL-120', 'drug sensitivity score', 0);

Data point: C=CC(=O)Nc1cc2c(Nc3ccc(F)c(Cl)c3)ncnc2cc1OCCCN1CCOCC1 ; drug sensitivity score = 6.69

Noted for CC[C@H](Nc1ncnc2[nH]cnc12)c1nc2cccc(F)c2c(=O)n1-c1ccccc1 : its drug sensitivity score reads 1.02

Looking up O=C(O)C1(C(=O)O)CCC1.[NH2-].[NH2-].[Pt+2] , I found its drug sensitivity score recorded as 0

* * *

normalised response for assorted compounds
test system: CAL-85-1; assay: normalised response (% of control), CellTox Green; higher = less cell death (100 = DMSO, 0 = benzethonium chloride kill control); details: incubation time: 72 h
State the answer as a number, implicitly in %.

INSERT INTO assay_data (compound, resultvalue) VALUES
  ('COc1cc2c(Oc3ccc4[nH]c(C)cc4c3F)ncnc2cc1OCCCN1CCCC1 [Cediranib] (100 nM)', 91.2),
  ('O=C(Cc1ccc(-c2ccc(OCCN3CCOCC3)cc2)cn1)NCc1ccccc1 [KX2-391] (1000 nM)', 68.1),
  ('CC[C@@H]1C(=O)N(C)c2cnc(Nc3ccc(C(=O)NC4CCN(C)CC4)cc3OC)nc2N1C1CCCC1 [BI 2536] (10 nM)', 65.3);

For record O=C(O)C1(C(=O)O)CCC1.[NH2-].[NH2-].[Pt+2] [Carboplatin] (100 nM) the listed normalised response is 108

# compound Cc1ccc(-c2cc(C(F)(F)F)nn2-c2ccc(S(N)(=O)=O)cc2)cc1 [Celecoxib] (10000 nM) ; its normalised response = 104

* * *

This listing pairs molecules with measured drug sensitivity score.
test system: HCC1143; experiment: drug sensitivity score (DSS), CellTiter-Glo (DSS (AUC-based score)); higher = stronger drug effect (viability inhibition or cytotoxicity); extreme values may be limits of the assay; settings: incubation time: 72 h

Recorded drug sensitivity score, per entry:
INSERT INTO assay_data (molecule, resultvalue) VALUES
  ('O=C(/C=C/c1cccnc1)NCCCCC1CCN(C(=O)c2ccccc2)CC1 [Daporinad]', 22.2),
  ('N#Cc1ccc(C(c2ccc(C#N)cc2)n2cncn2)cc1 [Letrozole]', 0),
  ('CC[C@H](C)C(=O)O[C@H]1C[C@H](O)C=C2C=C[C@H](C)[C@H](CC[C@@H](O)C[C@@H](O)CC(=O)O)[C@H]21 [Pravastatin]', 2.94);

drug sensitivity score on HCC1143 for CCc1cncnc1N1CCN(Cc2nc3ccc(C(F)(F)F)cc3[nH]2)CC1 is 0

* * *

test system: MDA-MB-453; experiment: drug sensitivity score (DSS), CellTiter-Glo (DSS (AUC-based score)); higher = stronger drug effect (viability inhibition or cytotoxicity); extreme values may be limits of the assay; settings: incubation time: 72 h
endpointName: drug sensitivity score

INSERT INTO measurements (molecule, endpointname, resultvalue) VALUES
  ('Nc1nc2[nH]cc(CCc3ccc(C(=O)N[C@@H](CCC(=O)O)C(=O)O)cc3)c2c(=O)[nH]1 [Pemetrexed]', 'drug sensitivity score', 0);

response.value for O=C(/C=C/c1cccnc1)NCCCCC1CCN(C(=O)c2ccccc2)CC1 [Daporinad] (field: drug sensitivity score) = 26.8

response.value for Oc1ncc(N(CCCl)CCCl)c(O)n1 [Uracil mustard] (field: drug sensitivity score) = 0

Form: molecule = O=C(O)C(=O)O.[NH-][C@@H]1CCCC[C@H]1[NH-].[Pt+2] [Oxaliplatin] ; drug sensitivity score = 0

Measured drug sensitivity score of CC[C@@H]1C(=O)N(C)c2cnc(Nc3ccc(C(=O)NC4CCN(C)CC4)cc3OC)nc2N1C1CCCC1 [BI 2536] : 11.5

The molecule listed as CCCCC(=O)OCC(=O)[C@]1(O)Cc2c(O)c3c(c(O)c2[C@@H](O[C@H]2C[C@H](NC(=O)C(F)(F)F)[C@H](O)[C@H](C)O2)C1)C(=O)c1c(OC)cccc1C3=O [Valrubicin] shows drug sensitivity score equal to 2.44

Recorded drug sensitivity score (molecule C=CC(=O)Nc1cc2c(Nc3ccc(F)c(Cl)c3)ncnc2cc1OCCCN1CCOCC1 [Canertinib] ): 6.35

# molecule O=C(O)C1(C(=O)O)CCC1.[NH2-].[NH2-].[Pt+2] [Carboplatin] ; its drug sensitivity score = 0
